Sourced from PubChem BioAssay (NCATS)

# Test name: NFAT Signaling Pathway (AID 444);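 further: carbachol stimulus at about its EC50 of 1 µM final; on the % scale 0 is the no-effect control and ±100 the full control effect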
# Measurement setup: Jurkat NFAT-bla M1, carbachol, beta-lactamase ratio, 5 h; at 7.69 µM (top of the series) unless noted
Inconclusive results are not listed. The source made the active and inactive calls. The call rests on the fitted dose curve; in most records, active means well fitted curve in either direction with a large enough effect (not every such curve was filed as active); inconclusive means small, poorly fitted or top-dose-only effect, or another doubt; inactive means flat fitted curve, though single readings scatter.
In this section, each of the compounds is paired with its reported activity change, negative = inhibition.

| Compound | activity change, negative = inhibition |
| --- | --- |
| C[N+](C)(N)Cc1nc(-c2ccc(Cl)cc2)no1 | -6.01% (inactive) |
| COC(=O)[C@H]1[C@H]2C[C@H]3c4[nH]c5ccccc5c4CCN3C[C@@H]2CC[C@@H]1O | -14.1% [at 38 µM] (inactive) |
| O=C(O)c1ccc(CNCc2ccccc2)cc1 | -2.06% (inactive) |
| Cc1cc(=O)[nH]c(/N=C(\N)Nc2ccc(Cl)cc2)n1 | -9.44% (inactive) |
| Oc1ccc([C@@H]2CNCc3sccc32)cc1O | 8.54% [at 38 µM] (inactive) |

// field: activity change, negative = inhibition; key: `O=C(CCN1CCOCC1)Nc1ccc(F)cc1F` ; value = 13.2% (inactive)

// field: activity change, negative = inhibition; key: `COc1ccc(C=Nc2c(O)ccc3ccccc23)cc1OC` ; value = 9.83% (inactive)

// field: activity change, negative = inhibition; key: `CC(C)[C@]1(Cl)CC[C@@H]2[C@]3(C)CCC[C@@](C)(C(=O)O)[C@H]3C[C@H](Cl)[C@@]2(Cl)[C@H]1Cl` ; value = 0.923% (inactive)

// field: activity change, negative = inhibition; key: C[C@]12CCC3c4ccc(OCC(=O)O)cc4CCC3C1CCC2=O (stereo partly specified) ; value = -1.29% (inactive)

// field: activity change, negative = inhibition; key: `N#CCCn1c(=O)c(-c2ccccc2)nc2cnc(Oc3ccccc3)nc21` ; value = -4.58% (inactive)

// field: activity change, negative = inhibition; key: `O[C@H](COc1ccccc1)CN1CCCCC1` ; value = 2.42% (inactive)
